Task for the reader: assign each of the following binders its reported % Inhibition, ratio FXIIa-alpha:Antibody 1:2.
assayTarget: T1, human Factor XIIa-alpha (human, UniProt P00748 20-615)
T1 sequence: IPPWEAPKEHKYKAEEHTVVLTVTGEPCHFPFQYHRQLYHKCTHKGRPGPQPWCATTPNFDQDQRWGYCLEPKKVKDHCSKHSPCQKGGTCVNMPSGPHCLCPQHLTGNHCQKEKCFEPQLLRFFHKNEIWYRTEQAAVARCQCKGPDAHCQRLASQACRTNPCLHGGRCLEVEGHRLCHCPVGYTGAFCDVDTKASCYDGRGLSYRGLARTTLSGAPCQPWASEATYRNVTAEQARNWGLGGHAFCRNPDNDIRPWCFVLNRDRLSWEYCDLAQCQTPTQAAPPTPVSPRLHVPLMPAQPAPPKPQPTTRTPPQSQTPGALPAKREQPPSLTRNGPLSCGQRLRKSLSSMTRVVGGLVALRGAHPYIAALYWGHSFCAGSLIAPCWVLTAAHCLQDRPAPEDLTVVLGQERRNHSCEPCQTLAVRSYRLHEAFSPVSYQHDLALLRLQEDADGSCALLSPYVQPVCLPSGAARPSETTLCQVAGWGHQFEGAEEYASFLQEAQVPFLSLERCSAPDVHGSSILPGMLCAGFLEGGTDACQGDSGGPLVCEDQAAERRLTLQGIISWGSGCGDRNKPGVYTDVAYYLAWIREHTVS
assayProcedure: cell-based or functional assay
Answers are plain numbers, in %.

VR115 (antibody, V domains shown) VH: EVQLLESGGGLVQPGGSLRLSCAASGFTFSKYIMQWVRQAPGKGLEWVSGIDIPTKGTVYADSVKGRFTISRDNSKNTLYLQMNSLRAEDTAVYYCARALPRSGYLISPHYYYYALDVWGQGTTVTVSS VL: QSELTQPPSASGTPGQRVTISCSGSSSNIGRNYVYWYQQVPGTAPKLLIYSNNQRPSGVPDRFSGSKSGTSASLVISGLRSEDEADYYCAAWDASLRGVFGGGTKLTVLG | 100

What % Inhibition, ratio FXIIa-alpha:Antibody 1:2 value was documented for this binder, VR112 (antibody, V domains shown) VH: EVQLLESGGGLVQPGGSLRLSCAASGFTFSKYIMQWVRQAPGKGLEWVSGINVPVQGTVYADSVKGRFTISRDNSKNTLYLQMNSLRAEDTAVYYCARALPRSGYLISPHYYYYALDVWGQGTTVTVSS VL: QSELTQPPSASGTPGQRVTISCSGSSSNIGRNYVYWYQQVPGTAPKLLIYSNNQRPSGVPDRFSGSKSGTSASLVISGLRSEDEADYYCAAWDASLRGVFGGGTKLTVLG ?
100
